- Test system: HCI01 (cells of a triple-negative basal-like breast cancer xenograft)
- TEST_NAME: cell viability (% of vehicle); higher = less cytotoxic
- SETUP_CONDITIONS: 10 µM; 72 h
In plain terms, low cell viability, meaning strictly below 100, gives Satisfied, and everything else gives Not satisfied.

As a guide, the following entries are already answered.
> print(dat)
                                    compound    group.label
 1  C[N+]1(C)C2CCC1CC(OC(=O)C(O)c1ccccc1)C2.[Br-] (stereo not drawn) [Homatropine Methylbromide]      Satisfied
 2  CON=C(C(=O)NC1C(=O)N2C(C(=O)O)=C(CSC(=O)c3ccco3)CSC12)c1csc(N)n1.Cl (stereo not drawn) [Ceftiofur HCl]      Satisfied
 3  CCCCc1nc(Cl)c(CO)n1Cc1ccc(-c2ccccc2-c2nnn[n-]2)cc1.[K+]  Not satisfied
 4                Cc1cc(C2CCCCC2)n(O)c(=O)c1      Satisfied
 5                     Cc1c(-c2cnccn2)ssc1=S      Satisfied
 6  CN(C)c1ccc(O)c2c1CC1CC3C(N(C)C)C(=O)C(C(N)=O)=C(O)C3(O)C(=O)C1=C2O.Cl (stereo not drawn) [Minocycline HCl]      Satisfied
 7            O=C(O)Cc1ccccc1Nc1c(Cl)cccc1Cl      Satisfied
 8  CCc1c2c(nc3ccc(OC(=O)N4CCC(N5CCCCC5)CC4)cc13)-c1cc3c(c(=O)n1C2)COC(=O)C3(O)CC (stereo not drawn)  Not satisfied
 9  CCN(CC)C(=O)C(C#N)=Cc1cc(O)c(O)c([N+](=O)[O-])c1  Not satisfied
10  CCN(CC)CC#CCOC(=O)C(O)(c1ccccc1)C1CCCCC1.Cl (stereo not drawn) [Oxybutynin chloride]  Not satisfied

Query: # strict comparison: is reported cell viability < 100? input = CCN(CC)C(=S)SSC(=S)N(CC)CC
Reply: Not satisfied

Query: Lab note: confirm whether the reported cell viability for this compound is below 100, equality not counting. compound: C=C[C@@H]1C[N@@]2CC[C@H]1C[C@@H]2[C@H](O)c1ccnc2ccc(OC)cc12
Reply: Satisfied

----------
- System: HCI01
- TEST_NAME: cell viability (% of vehicle); higher = less cytotoxic
- SETUP_CONDITIONS: 1 µM; 72 h
PROPERTY_LABEL: cell viability
One number for each entry.

// known answers, use as guide
COMPOUND	READOUT_VALUE
CO[C@H]1/C=C/O[C@@]2(C)Oc3c(C)c(O)c4c(O)c(c(/C=N/N5CCN(C6CCCC6)CC5)c(O)c4c3C2=O)NC(=O)/C(C)=C\C=C\[C@H](C)[C@H](O)[C@@H](C)[C@@H](O)[C@@H](C)[C@H](OC(C)=O)[C@@H]1C	93.7
Cc1cc(Nc2ncc(Cl)c(Nc3ccccc3S(=O)(=O)C(C)C)n2)c(OC(C)C)cc1C1CCNCC1	76.4

Let's switch to this compound now.
Query: Tell me the measured cell viability of CSc1ccc2c(c1)N(CCC1CCCCN1C)c1ccccc1S2.Cl (stereo not drawn) [Thioridazine HCl] , please.
Reply: 87

----------
- Tested on: WHIM2 (cells of a triple-negative basal-like breast cancer xenograft)
- TEST_NAME: cell viability (% of vehicle); higher = less cytotoxic
- SETUP_CONDITIONS: 10 µM; 72 h
PROPERTY_LABEL: cell viability
One number for each entry.

> print(dat)
                                   molecule  readout.value
1  COc1cccc2c1C(=O)c1c(O)c3c(c(O)c1C2=O)CC(O)(C(=O)CO)CC3OC1CC(N)C(O)C(C)O1.Cl (stereo not given) [Epirubicin HCl]           29.1
2  O=C(O)C=CC(=O)O.OCCOCCN1CCN(C2=Nc3ccccc3Sc3ccccc32)CC1.OCCOCCN1CCN(C2=Nc3ccccc3Sc3ccccc32)CC1 [Quetiapine Fumarate]            128
3           CC(=O)Oc1cc(C(F)(F)F)ccc1C(=O)O            107
4  C[C@H]1COc2c(N3CCN(C)CC3)c(F)cc3c(=O)c(C(=O)O)cn1c23            104
5  Cc1nnc(C(C)C)n1C1CC2CCC(C1)N2CCC(NC(=O)C1CCC(F)(F)CC1)c1ccccc1 (stereo not given)           91.4
6  COc1cc2nc(N3CCN(C(=O)C4COc5ccccc5O4)CC3)nc(N)c2cc1OC.CS(=O)(=O)O (stereo not given) [Doxazosin Mesylate]           62.6
7  Br.CN(C)CCC[C@]1(c2ccc(F)cc2)OCc2cc(C#N)ccc21 [Citalopram hydrobromide]           94.2
8  Clc1ccc(C(c2ccccc2Cl)C(Cl)Cl)cc1 (stereo not given)           96.3

For every listed record, write down its cell viability.
1. Clc1ccc(C(Cn2ccnc2)OCc2ccc(Sc3ccccc3)cc2)c(Cl)c1.O=[N+]([O-])O (stereo not given) [Fenticonazole Nitrate]
2. Cc1cc(C=CC#N)cc(C)c1Nc1ccnc(Nc2ccc(C#N)cc2)n1
3. C[N+]1(C)C2CCC1CC(OC(=O)C(O)c1ccccc1)C2.[Br-] (stereo not given) [Homatropine Methylbromide]
4. O[C@@H]1CO[C@H]2[C@@H]1OC[C@@H]2O [Isosorbide]
5. Cc1nccn1CC1CCc2c(c3ccccc3n2C)C1=O.Cl (stereo not given) [Ondansetron HCl]
6. O=C([O-])Cc1ccccc1Nc1c(Cl)cccc1Cl.[Na+] [Diclofenac Sodium]
7. CC1OC(n2cc(F)c(=O)[nH]c2=O)C(O)C1O (stereo not given)
8. O=c1ccn(C2OC(CO)C(O)C2O)c(=O)[nH]1 (stereo not given)

Reply:
40.7
93.7
112
108
83.9
90.2
102
89.7
